- Tested on: HEPG2
- Assay Overview: Euclidean distance of Cell Painting phenotypic profile (signed KS, 77 features) to DMSO centroid (dimensionless distance); 5 or 10 uM (library dependent); higher = stronger phenotypic change vs DMSO (phenoactivity)
- Details: 48 h
Counter-ions that a name gives are not always drawn.
Measured Euclidean distance values are reported for all entries that follow.
// no unit, no text: just the number

In the examples that follow, each entry is paired with its recorded Euclidean distance.
Molecule	Property Name	Numeric Readout
Cc1c(-c2cnccn2)ssc1=S	Euclidean distance	1.11
Cc1ccc(S(=O)(=O)c2ccc([N+](=O)[O-])o2)cc1	Euclidean distance	1.81
O=c1[nH]c(=O)n([C@H]2C[C@H](O)[C@@H](CO)O2)cc1I	Euclidean distance	1.5
Cc1cccc(N(C)C(=S)Oc2ccc3ccccc3c2)c1 [Tolnaftate]	Euclidean distance	1.96
NC(=O)c1ccc(-c2nc(-c3ccccn3)c(-c3ccc4c(c3)OCO4)[nH]2)cc1	Euclidean distance	2.52

Would you please give the reported Euclidean distance of N[C@H]1CONC1=O with HEPG2?
0.788

Name the recorded Euclidean distance of Cc1nnc(C(=O)NC(C)(C)c2nc(C(=O)NCc3ccc(F)cc3)c(O)c(=O)n2C)o1 [Raltegravir (MK-0518)] , assay system HEPG2.
0.537

Give Euclidean distance for this entry on HEPG2: N#Cc1cc(-c2n[nH]c(-c3ccncc3)n2)ccn1
0.521

Report measured Euclidean distance on HEPG2; entry: c1ccc(CC2=NCCN2)cc1 [Tolazoline HCl]
0.734

Would you please give the reported Euclidean distance of COc1cc2c(Nc3ccc(NC(=O)c4ccccc4)cc3)ncnc2cc1OCCCN1CCOCC1 with HEPG2?
1.92

# return Euclidean distance for C[C@H](NC(=O)CCc1nc2ccccc2c(=O)[nH]1)c1ccccc1 , test system: HEPG2
1.15

Specify the recorded Euclidean distance for Cn1cc(C(=O)[C@@H]2CCc3[nH]cnc3C2)c2ccccc21 [Ramosetron Hydrochloride] , system: HEPG2.
0.731

Enter Euclidean distance (test system HEPG2) for Nc1[nH]cnc2ncnc1-2 [Adenine sulfate]
0.765

With HEPG2 as the test system, provide measured Euclidean distance for this molecule: Cn1c([N+](=O)[O-])cnc1COC(N)=O
0.646

Recall the reported Euclidean distance of S=C(N/N=C1/CCCc2cccnc21)N1CCN(c2ccccn2)CC1 on HEPG2 and write it down.
2.23

State recorded Euclidean distance with HEPG2, entry COc1cc2c(cc1OC)[C@H]1C[C@@H](OC(=O)[C@@H](N)C(C)C)[C@H](CC(C)C)CN1CC2 [Valbenazine tosylate] , no comment.
0.752

// fetch Euclidean distance; item: CCNC(=O)[C@@H]1CCCN1C(=O)[C@H](CCCNC(=N)N)NC(=O)[C@H](CC(C)C)NC(=O)[C@@H](CC(C)C)NC(=O)[C@H](Cc1ccc(O)cc1)NC(=O)[C@H](CO)NC(=O)[C@H](Cc1c[nH]c2ccccc12)NC(=O)[C@H](Cc1c[nH]cn1)NC(=O)[C@@H]1CCC(=O)N1 [Leuprolide Acetate] ; system: HEPG2
0.515

// fetch Euclidean distance for CC(=O)Nc1ccc(CC(=O)O)cc1 ; system: HEPG2
0.464

###

- Test system: OVCAR4
- Assay Overview: Euclidean distance of Cell Painting phenotypic profile (signed KS, 77 features) to DMSO centroid (dimensionless distance); 5 or 10 uM (library dependent); higher = stronger phenotypic change vs DMSO (phenoactivity)
- Details: 48 h
# reported Euclidean distance; entries follow

>>> print(df.to_string())
                                   molecule       property_name  result
0  CNC(=O)c1nn(C)c2c1C(C)(C)Cc1cnc(Nc3ccc(N4CCN(C)CC4)cc3)nc1-2  Euclidean distance     2.9

Hello, please tell me recorded Euclidean distance for this one: NC(=O)c1ccccc1O [Salicylamide]
2.3

Output Euclidean distance of OC[C@H]1O[C@@H](c2ccc(F)c(Cc3cc4ccccc4s3)c2)[C@H](O)[C@@H](O)[C@@H]1O [Ipragliflozin (ASP1941)]
0.699

Specify measured Euclidean distance for O=C1c2ccccc2C(=O)c2c1ccc(O)c2O [Alizarin] .
1.07

Indicate its recorded Euclidean distance; the molecule in question is CC/C(=C(/CC)c1ccc(O)cc1)c1ccc(O)cc1 [Diethylstilbestrol]
0.682

###

- Tested on: OVCAR4
- Assay Overview: Euclidean distance of Cell Painting phenotypic profile (signed KS, 77 features) to DMSO centroid (dimensionless distance); 5 or 10 uM (library dependent); higher = stronger phenotypic change vs DMSO (phenoactivity)
- Details: 48 h
Property Name: Euclidean distance

>>> print(df.to_string())
                                   compound  target_entity  result
0  CC1CCc2c(N3CCC(O)CC3)c(F)cc3c(=O)c(C(=O)O)cn1c23 (stereo not drawn)         OVCAR4   0.748
1  O=C(Nc1ccc(Oc2ccc(Cl)cc2)c(Cl)c1)c1cc(I)cc(I)c1O [Rafoxanide]         OVCAR4    1.54
2  C#Cc1cccc(Nc2ncnc3cc(OCCOC)c(OCCO)cc23)c1         OVCAR4    2.03
3  CC(C)c1ccc2oc3nc(N)c(C(=O)O)cc3c(=O)c2c1         OVCAR4   0.738
4                Cc1cc(C2CCCCC2)n(O)c(=O)c1         OVCAR4    3.51
5  OC[C@H]1O[C@@H](O[C@@H]2[C@@H](CO)OC(O)(CO)[C@H]2O)[C@H](O)[C@@H](O)[C@H]1O (mixture of isomers)         OVCAR4     1.7
6  COc1cc(OC2CCN(C)CC2)ccc1Nc1ncc2c(n1)n(C1CCCC1)c(=O)n2C         OVCAR4    1.83
7  Nc1nc(F)nc2c1ncn2[C@@H]1O[C@H](COP(=O)(O)O)[C@@H](O)[C@@H]1O [Fludarabine Phosphate]         OVCAR4    2.98

Check the records and state Euclidean distance for Cc1ccc(Sc2ccccc2N2CCNCC2)c(C)c1
2.43

###

// reported Euclidean distance per item
- Test system: HEPG2
- Assay Overview: Euclidean distance of Cell Painting phenotypic profile (signed KS, 77 features) to DMSO centroid (dimensionless distance); 5 or 10 uM (library dependent); higher = stronger phenotypic change vs DMSO (phenoactivity)
- Details: 48 h
Counter-ions that a name gives are not always drawn.
Respond using a number only.

Molecule	Euclidean distance
NC(=O)c1ccc(N(C(N)=O)c2c(F)cccc2F)nc1-c1ccc(F)cc1F	0.723
C[C@@H]1C/C=C/C=C/C=C/C=C/[C@H](O[C@@H]2O[C@H](C)[C@@H](O)[C@H](N)[C@@H]2O)C[C@@H]2O[C@](O)(C[C@@H](O)C[C@H]3O[C@@H]3/C=C/C(=O)O1)C[C@H](O)[C@H]2C(=O)O [Natamycin]	1.14
Cc1ccccc1C(OCCN(C)C)c1ccccc1 (configuration not stated) [Orphenadrine Citrate]	2.08
CC(C)(C)C(=O)OCOP(=O)(COCCn1cnc2c(N)ncnc21)OCOC(=O)C(C)(C)C [Adefovir Dipivoxil]	3.97
CC(C)(O)CC[C@@H](O)[C@](C)(O)[C@H]1CC[C@@]2(O)C3=CC(=O)[C@@H]4C[C@@H](O)[C@@H](O)C[C@]4(C)[C@H]3CC[C@]12C [20-Hydroxyecdysone]	1.06

For the molecule NC(=O)c1ncn([C@@H]2O[C@H](CO)[C@@H](O)[C@H]2O)c1O [Mizoribine] , give its measured Euclidean distance value.
0.657

Please give measured Euclidean distance of the following entry: COC1=C(OC)C(=O)C(CCCCCCCCCCO)=C(C)C1=O [Idebenone]
1.05

Give Euclidean distance for CCOC(=O)OC(C)OC1=C(C(=O)Nc2ccccn2)N(C)S(=O)(=O)c2ccccc21 (configuration not stated) [Ampiroxicam]
0.41

###

- System: HEPG2
- Assay Overview: Euclidean distance of Cell Painting phenotypic profile (signed KS, 77 features) to DMSO centroid (dimensionless distance); 5 or 10 uM (library dependent); higher = stronger phenotypic change vs DMSO (phenoactivity)
- Details: 48 h
Each entry gets Not satisfied if its Euclidean distance stays under 0.8, and Satisfied if its Euclidean distance is 0.8 or above.

Example cases with answers are listed next.
                                   molecule  target_entity  group_label
0  O=C(N/N=C/c1ccc([N+](=O)[O-])o1)c1ccc(O)cc1 [Nifuroxazide]          HEPG2    Satisfied
1  c1ccc2c(Oc3nc(Nc4ccc(N5CCOCC5)cc4)c4ncn(C5CCCCC5)c4n3)cccc2c1          HEPG2    Satisfied
2  CC(C)N(CCCNC(=O)Nc1ccc(C(C)(C)C)cc1)C[C@H]1O[C@@H](n2cc(Br)c3c(N)ncnc32)[C@H](O)[C@@H]1O          HEPG2    Satisfied

Kindly determine if Euclidean distance recorded for CCOC(=O)Nc1cc(-c2ccc(C)c(NS(C)(=O)=O)c2)nn2c(C)nnc12 is above or exactly 0.8.
Satisfied

Can C=CC(=O)Nc1cccc(Oc2nc(Nc3ccc(N4CCN(C)CC4)cc3)nc3ccsc23)c1 be said to have Euclidean distance at or above 0.8?
Satisfied

Is reported Euclidean distance greater than or equal to 0.8 here: COc1ccc(-c2cc(=O)c3c(O)cc(O)cc3o2)cc1O
Satisfied

Please tell me: is the molecule CCCCN(CCCC)CC(O)c1cc(Cl)cc2c1-c1ccc(Cl)cc1/C2=C/c1ccc(Cl)cc1 (stereo not drawn) at or over 0.8 in terms of Euclidean distance?
Satisfied

Textbook exercise: given the entry COc1ccc(-c2cc(=O)c3c(O)cc(O[C@@H]4O[C@H](CO[C@@H]5O[C@@H](C)[C@H](O)[C@@H](O)[C@H]5O)[C@@H](O)[C@H](O)[C@H]4O)cc3o2)cc1O , state whether its Euclidean distance is greater than or equal to 0.8.
Not satisfied

Does the reported Euclidean distance for Cc1cc(/C=C/c2ccc3cc(N(C)C)ccc3[n+]2C)c(C)n1-c1ccccc1 fall at or above the 0.8 mark?
Satisfied
